Target: GRK2 (Homo sapiens)
Test: hGRK2 LANCE Ultra In Vitro Assay
Type: biochemical
Conditions: Biological Example 1 GRK2 Lancer IC50 (μM), 10 nM GRK2; 30 or 600 μM ATP (not stated which); multiple measurements listed individually
Measured log10 IC50 values are reported for all entries that follow.
Values below are the log10 of the recorded IC50, with µM as the unit.

Completed entries (count: 8):
1) CCOc1cccc(CN2C(=O)c3cc(-n4cn[nH]c4=O)ccc3C2(C)C)c1 [Compound 45]
0.21
2) COc1cccc(CN2Cc3cc(F)c(-c4cn[nH]c4)cc3C2=O)c1 [Compound 35]
-2.30
3) COc1cccc([C@@H](C(=O)O)N2Cc3ccc(-c4cn[nH]c4)cc3C2=O)c1 [Compound 169]
-0.27
4) COc1cccc(CN2C(=O)c3cc(-c4cn[nH]c4)ccc3C23CCC2OC(=O)NC23)c1 (centres unmarked) [Compound 151]
-1.96
5) CC(C)Oc1cccc(CN2Cc3ccc(-c4cn[nH]c4)cc3C2=O)c1 [Compound 69]
-2.22
6) COc1cncc(-c2cc(-c3cn[nH]c3)cc3c2CN([C@H](C)c2cccc(OC)c2)C3=O)c1 [Compound 126]
-1.62
7) COc1cccc(CN2Cc3cc(F)c(-c4ccnc(N)n4)cc3C2=O)c1 [Compound 36]
-0.62
8) COc1cccc(CN2C(=O)c3cc(-c4cn[nH]c4)ccc3C2(CCO)CCO)c1 [Compound 41]
-1.47

Exercise: Can you look up the measured log10 IC50 of COc1cccc(C(CO)N2Cc3ccc(-c4cccnc4)cc3C2=O)c1 (centres unmarked) [Compound 83] for me?
Key: -1.62

Exercise: COc1cccc(C(CO)N2C(=O)c3cc(-c4cn[nH]c4)ccc3C23CCCC3)c1 (centres unmarked) [Compound 79] ?
Key: -1.52

Exercise: O=C(Oc1cccc(CN2Cc3ccc(-c4cn[nH]c4)cc3C2=O)c1)C1CC1 [Compound 137] ?
Key: -1.47

Exercise: COc1cccc(CN2C(=O)c3cc(-c4cn[nH]c4)ccc3C23CCC(OC)C3)c1 (centres unmarked) [Compound 170] ?
Key: -2.22

Exercise: COc1cccc([C@@H](C)N2C(=O)c3cc(-c4cn[nH]c4)ccc3[C@H]2CC(=O)O)c1 (single isomer, unassigned) [Compound 98] ?
Key: -0.97

Exercise: COc1cccc([C@@H](C)N2Cc3c(cc(-c4cn[nH]c4)cc3-c3cncc(F)c3)C2=O)c1 [Compound 120] ?
Key: -2.05

---

Molecular target: GRK2 (Homo sapiens)
Sequence (P25098 1-689): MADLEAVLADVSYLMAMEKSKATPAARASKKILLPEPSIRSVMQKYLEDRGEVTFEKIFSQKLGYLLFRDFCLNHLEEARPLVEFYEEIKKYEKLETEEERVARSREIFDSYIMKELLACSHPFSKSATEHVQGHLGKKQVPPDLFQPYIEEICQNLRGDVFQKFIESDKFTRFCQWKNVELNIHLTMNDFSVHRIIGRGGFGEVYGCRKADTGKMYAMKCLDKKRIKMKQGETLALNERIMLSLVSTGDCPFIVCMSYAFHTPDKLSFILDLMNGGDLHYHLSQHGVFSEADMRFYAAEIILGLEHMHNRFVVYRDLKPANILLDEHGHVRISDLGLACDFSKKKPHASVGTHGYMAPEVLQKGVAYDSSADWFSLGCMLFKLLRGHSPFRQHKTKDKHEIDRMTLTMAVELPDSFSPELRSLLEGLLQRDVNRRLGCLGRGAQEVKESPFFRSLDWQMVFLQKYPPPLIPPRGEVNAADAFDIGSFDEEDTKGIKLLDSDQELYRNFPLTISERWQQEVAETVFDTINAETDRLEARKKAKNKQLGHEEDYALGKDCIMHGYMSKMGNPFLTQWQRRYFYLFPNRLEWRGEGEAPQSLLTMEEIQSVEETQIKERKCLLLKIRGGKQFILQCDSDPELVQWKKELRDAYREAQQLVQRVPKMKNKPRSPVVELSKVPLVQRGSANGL
Assay: hGRK2 LANCE Ultra In Vitro Assay
Assay type: biochemical
Conditions: Biological Example 1 GRK2 Lancer IC50 (μM), 10 nM GRK2; 30 or 600 μM ATP (not stated which); multiple measurements listed individually
Measured IC50 values are reported for all entries that follow.
Use µM as the unit, but write only the number.

1) CCOc1cccc(C(CO)N2Cc3ccc(-c4cn[nH]c4)cc3C2=O)c1 (stereo not shown)
0.008
2) CC(=O)OCC(=O)Oc1cccc(CN2Cc3ccc(-c4cn[nH]c4)cc3C2=O)c1
0.002
3) O=C1c2cc(-c3cn[nH]c3)ccc2CN1Cc1ccc(F)s1
0.088
4) C[C@H](c1cccc(C(=O)Nc2ccc(F)c(F)c2)c1)N1Cc2ccc(-c3cn[nH]c3)cc2C1=O
0.261
5) O=C(Nc1ccc(F)c(F)c1)c1cccc(CN2Cc3ccc(-c4cn[nH]c4)cc3C2=O)c1
0.006
6) COc1cccc([C@@H](C)N2Cc3c(cc(-c4cn[nH]c4)cc3N3CCNCC3)C2=O)c1
0.007
7) COc1cccc([C@@H](C)N2Cc3c(cc(-c4cn[nH]c4)cc3-c3ccc(C(F)(F)F)nc3)C2=O)c1
0.285
8) O=C(NC1CC2CCC1C2)c1cccc(CN2Cc3ccc(-c4cn[nH]c4)cc3C2=O)c1 (stereo not shown)
0.003

Exercise: Can you look up the measured IC50 of COc1cccc(CN2C(=O)c3cc(-c4cn[nH]c4)ccc3C23CCC(C(=O)O)C3)c1 (stereo not shown) for me?
Key: 0.005

Exercise: COc1cccc(CN2C(=O)c3cc(-c4cn[nH]c4)ccc3C2Cc2nn[nH]n2)c1 (stereo not shown) ?
Key: 0.02

Exercise: COc1cccc(C(C(=O)c2ccccc2)N2Cc3ccc(-c4cn[nH]c4)cc3C2=O)c1 (stereo not shown) ?
Key: 5.01

Exercise: COc1cccc(CN2C(=O)c3cc(-c4cn[nH]c4)ccc3C2CC(=O)O)c1 (stereo not shown) ?
Key: 0.012

Exercise: COc1cccc(C(CO)N2Cc3c(cc(-c4cn[nH]c4)cc3-c3ccncc3)C2=O)c1 (stereo not shown) ?
Key: 0.021

Exercise: `COc1cccc([C@@H](C)N2Cc3c(cc(-c4cn[nH]c4)cc3-c3cc(C)nc(C)c3)C2=O)c1` ?
Key: 0.005

Exercise: `CCOc1cccc([C@@H](C)N2Cc3ccc(-c4ncccn4)cc3C2=O)c1` ?
Key: 0.104

Exercise: `COc1cccc([C@@H](C)N2Cc3c(cc(-c4cn[nH]c4)cc3-c3ccc(O)cc3)C2=O)c1` ?
Key: 0.011

Value source: patent US20220009906A1
